# experimental system: T1, CAPRIN-1 protein expressed on the cell surface of human cancer cells (human, UniProt Q14444 2-709)
# T1 construct: whole, on cells; Target of all flow cytometry and ADCC assays; the cell line is named under assay; also called human CAPRIN-1; cytoplasmic- and proliferation-associated protein 1
# T1 sequence (looked up): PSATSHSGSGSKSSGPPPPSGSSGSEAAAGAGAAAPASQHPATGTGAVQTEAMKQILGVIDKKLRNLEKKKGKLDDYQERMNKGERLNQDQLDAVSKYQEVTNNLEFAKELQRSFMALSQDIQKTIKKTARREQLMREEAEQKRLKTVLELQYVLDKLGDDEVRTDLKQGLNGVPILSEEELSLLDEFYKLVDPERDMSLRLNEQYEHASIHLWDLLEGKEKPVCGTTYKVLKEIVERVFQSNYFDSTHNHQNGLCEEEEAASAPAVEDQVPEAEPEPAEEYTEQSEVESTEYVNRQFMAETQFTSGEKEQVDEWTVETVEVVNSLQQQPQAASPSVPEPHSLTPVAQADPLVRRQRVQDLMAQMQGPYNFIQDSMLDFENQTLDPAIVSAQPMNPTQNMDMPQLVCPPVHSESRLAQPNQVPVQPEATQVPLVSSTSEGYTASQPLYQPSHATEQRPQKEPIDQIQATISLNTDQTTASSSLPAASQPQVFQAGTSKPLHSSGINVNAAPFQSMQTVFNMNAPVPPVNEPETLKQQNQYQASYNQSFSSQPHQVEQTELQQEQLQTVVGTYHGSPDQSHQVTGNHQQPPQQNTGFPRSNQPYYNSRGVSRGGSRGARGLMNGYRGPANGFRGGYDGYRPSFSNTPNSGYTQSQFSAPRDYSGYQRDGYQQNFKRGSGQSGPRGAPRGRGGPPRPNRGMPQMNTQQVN
# assay text: flow cytometry, TGBC14TKB cells, culture supernatant, isotype control antibody as control
quantity kind: rate of increase in mean fluorescence intensity over control

Q. Can you look up the measured rate of increase in mean fluorescence intensity over control of mouse monoclonal antibody #12 (antibody, V domains shown, mouse hybridoma antibody; also called anti-CAPRIN-1 mouse monoclonal antibody #12; anti-CAPRIN-1 monoclonal antibody #12) VH: EVQLHQFGAELVKPGASVKISCKASGYTFTDYNMDWVKQSHGKSLEWIGDINPNYDSTSYNQKFKGKATLTVDKSSSTAYMELRSLTSEDTAVYYCARSRSYDYEGFAYWGQGTLVTVSA VL: DIQMTQSPASLSASVGETVTITCRASGNIHNYLAWYQQKQGKSPQLLVYNAKTLADGVPSRFSGSGSGTQYSLKINSLQPEDFGSYYCQHFWSTLTFGAGTKLELKR for me?
A. ≥ 20%

Q. If you can, please state the reported rate of increase in mean fluorescence intensity over control value of mouse monoclonal antibody #15 (antibody, V domains shown, mouse hybridoma antibody; also called anti-CAPRIN-1 mouse monoclonal antibody #15; anti-CAPRIN-1 monoclonal antibody #15) VH: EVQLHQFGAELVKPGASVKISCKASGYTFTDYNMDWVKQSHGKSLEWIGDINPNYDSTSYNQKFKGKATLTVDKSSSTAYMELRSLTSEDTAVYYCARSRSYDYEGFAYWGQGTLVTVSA VL: SGDRVSLSCRASQSISNYLHWYQQKSHESPRLLIKYASQSISGIPSRFSGSGSGTDFTLSINSVETEDFGMYFCQQSNSWPYTFGAGTKLEIKQ .
A. ≥ 20%

Q. Can you share its rate of increase in mean fluorescence intensity over control? I mean this binder: mouse-chicken chimeric antibody #3 (antibody, mouse IgG1, V domains shown, also called anti-CAPRIN-1 mouse-chicken chimeric antibody #3) VH: AVTLDESGGGLQTPGGALSLVCKASGFTFSGYDMLWVRQAPGKGLEWVAGIGSTGGGTDYGAAVKGRATISRDNGQSTVRLQLNNLRAEDTATYYCAKVAGGCNSGYCRDSPGSIDAWGHGTEVIVS VL: AVTQQPASVSANPGETVKITCSGGGSRNYYGWYQQKSPGSVPVTVIYYDDQRPSNIPSRFSGALSGSTSTLTITGVQADDEAVYFCGSADSNTYEGSFGAGTTLTVL
A. ≥ 20%
